All figures here come from patent US20220289833A1.

target: T1, Recombinant human TSLP-his (human, UniProt Q969D9 29-159); test: SPR, Biacore T200; TSLP-his amine-coupled to CM5 chip, antibody as analyte; 1:1 Langmuir fit
T1 construct: Prepared in-house; Amine-coupled to CM5 chip in SPR, loaded on APS sensors in Octet, biotin-labeled in the capture ELISA, unlabeled in the cell functional assays; also called human TSLP-his protein
pKd: −log10 of the molar value.
Consider the following binders; for each one, report its pKd.

Memo: 1H3F11B7 (antibody, V domains shown, Mouse hybridoma mAb) VH: QVQLQQPGTELVKPGASVKMSCKASGYTFTTYWMHWVKQRPGQGLEWIGVIDPSDSDTTYNQKFKGKATLTVDTSSSTAYMQLSSLTSEDSAVYYCTRSLDGYYDYWGQGTTLTVSS VL: DIQMTQSPASLSASVGETVTITCRPTENIYSYLAWYQQKQGKSPHLLVYFARTLAEGVPSRFSGSGSGTQFSLKINSLQPEDFGIYYCQHHYGTPWTFGGGTKLEIK , reported pKd: > 9.97

For reference, reported pKd for Mouse D1C2H1H1 (antibody, V domains shown, Mouse hybridoma mAb) VH: QVTLKESGPGILQPSQTLSLTCSFSGFSLSTYGMGIGWIRLPSGKGLEWLASIWWDDNRYFNAALKSRLTISKDASKNQVFLKIASVDTADTATYYCARIEDGYYSYHSYWGQGTLVTVSA VL: DIVLTQSPASLAVSLGQRATISCKASQSVDFDGDSYMNWFQQKPGQPPKLLIYAASNLVSGIPARFSGSGSGTDFTLNIHPVEEEDAATYYCQQIDEDPYTFGGGTKLEIE stands at > 10.83

Summary for this binder, mouse 1C5F12E9 (antibody, V domains shown, also called mouse anti-TSLP 1C5F12E9 antibody) VH: QVQLQQPGTELVKPGASVKMSCKASGYTFTTYWMHWVKQRPGQGLEWIGVIDPSDSDTTYNQKFKGKATLTVDTSSSTAYMQLSSLTSEDSAVYYCTRSLDGYYDYWGQGTTLTVSS VL: DIQMTQSPASLSASVGETVTITCRPTENIYSYLAWYQQKQGKSPHLLVYFARTLAEGVPSRFSGSGSGTQFSLKINSLQPEDFGIYYCQHHYGTPWTFGGGTKLEIK : pKd is > 9.96
